Test system: biotinyl-Met-oxazolone
Test Details: self-aminoacylation, catalytic enhancement (BMO) (fold over background); higher = more active; k-Seq, kA / k0A0; sequences stand for … in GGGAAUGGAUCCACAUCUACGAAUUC…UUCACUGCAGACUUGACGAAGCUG
Fewer inactive variants are shown than the library holds.
Tag: condition met if measured self-aminoacylation is not below 3, condition not met if it is.

Check this sequence for self-aminoacylation at or above 3: CUUCAUCUAGGUCAUCGGGUG [Fam2.2 aminoacylation ribozyme variant]
condition met

Check this sequence for self-aminoacylation at or above 3: AAGUUUGCUAAAAGUCGUAAG [Fam3.1 aminoacylation ribozyme variant]
condition not met

Check this sequence for self-aminoacylation at or above 3: AUACUUCAAAUAAUCGGUCUG [Fam1A.1 aminoacylation ribozyme variant]
condition not met

Check this sequence for self-aminoacylation at or above 3: AAAUUUGCUAAUACUCGCAAG [Fam3.1 aminoacylation ribozyme variant]
condition not met

Check this sequence for self-aminoacylation at or above 3: AUUCGCCUAGGUCAGCGGGUG [Fam2.2 aminoacylation ribozyme variant]
condition met

Check this sequence for self-aminoacylation at or above 3: CUACUUCAAACAAUCGCUAUG [Fam1A.1 aminoacylation ribozyme variant]
condition not met

Check this sequence for self-aminoacylation at or above 3: CCACACUUCAAGCAAUCCGUG [Fam1B.1 aminoacylation ribozyme variant]
condition met

Check this sequence for self-aminoacylation at or above 3: AUUCAACUAGGUCAUUGGGUG [Fam2.2 aminoacylation ribozyme variant]
condition met

* * *

Tested on: biotinyl-Trp-oxazolone
Test Details: self-aminoacylation, catalytic enhancement (BWO) (fold over background); higher = more active; k-Seq, kA / k0A0; sequences stand for … in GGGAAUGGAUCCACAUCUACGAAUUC…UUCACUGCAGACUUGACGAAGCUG
Variants at the floor of the assay were thinned out.
Tag: Satisfied if measured self-aminoacylation is not below 1, Not satisfied if it is.

>>> df
                              item_sequence  assigned_category
0  CUAGUUCAAAUAAUCGGUCUG [Fam1A.1 aminoacylation ribozyme variant]          Satisfied
1  AAGUUUGAUAAUCGUCGCAAG [Fam3.1 aminoacylation ribozyme variant]          Satisfied
2  AAGUUUGCUAAUAGGCGCAGG [Fam3.1 aminoacylation ribozyme variant]          Satisfied
3  CUACUUCAAACAUUCGGUGUG [Fam1A.1 aminoacylation ribozyme variant]          Satisfied
4  AUUACCCUGGUCAUCGUGAGA [Fam2.1 aminoacylation ribozyme variant]      Not satisfied

Check this sequence for self-aminoacylation at or above 1: CCACUUAAAACAAUCGGUCUG [Fam1A.1 aminoacylation ribozyme variant]
Satisfied

* * *

System: biotinyl-Trp-oxazolone
Test Details: self-aminoacylation, catalytic enhancement (BWO) (fold over background); higher = more active; k-Seq, kA / k0A0; sequences stand for … in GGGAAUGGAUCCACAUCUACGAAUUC…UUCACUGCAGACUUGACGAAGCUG
Fewer inactive variants are shown than the library holds.
Property Name: self-aminoacylation
Kindly provide the number alone.

Look over these answered cases.
>>> df
                              item_sequence        property_name  value_measured
0  AGUCGCCUAGGUCAUCGGGUG [Fam2.2 aminoacylation ribozyme variant]  self-aminoacylation            9.01
1  AUUUUCCUGGUCAUCGAGUGA [Fam2.1 aminoacylation ribozyme variant]  self-aminoacylation             9.4
2  AUUCAUCUAUGUCAUCGGGUG [Fam2.2 aminoacylation ribozyme variant]  self-aminoacylation            6.27

Measured on biotinyl-Trp-oxazolone, CCACAGUUCAAGCCAUCGGUC [Fam1B.1 aminoacylation ribozyme variant] has a documented self-aminoacylation of 1.3

Measured on biotinyl-Trp-oxazolone, AAGUUUGCUAACCGUCGCAAG [Fam3.1 aminoacylation ribozyme variant] has a documented self-aminoacylation of 0.488

Measured on biotinyl-Trp-oxazolone, AAGCUUGCUAAUAGUCGAAAG [Fam3.1 aminoacylation ribozyme variant] has a documented self-aminoacylation of 1.88

Measured on biotinyl-Trp-oxazolone, AUUACCCUGGUCAUAGAGUUA [Fam2.1 aminoacylation ribozyme variant] has a documented self-aminoacylation of 0.786
